- EXPERIMENT DESCRIPTION: in vitro
- EXPERIMENTAL PARAMETERS: African green monkey
Please respond with true when measured CC50 is strictly beneath 5 µM, and with false in all other cases.

| STRUCTURE NOTATION | CLASS LABEL |
| --- | --- |
| CC(C)Oc1ccc(-n2cnc3ccc(-c4ccc5[nH]ccc5c4)cc32)cc1 | false |
| CC(C)Oc1ccc(-c2ccc3ncc(-c4ccc(C5CC5)cc4)n3c2)cc1 | true |
| CC(C)Oc1ccc(-c2ccc3ncc(-c4ccc(OCC5CC5)cc4)n3c2)cc1 | true |
| CC(C)Oc1ccc(-n2nnc3ccc(-c4ccc5[nH]ccc5c4)cc32)cc1 | false |
| CC(C)Oc1ccc(-n2cnc3ccc(-c4ccc(C(C)(C)O)cc4)nc32)cc1 | false |
| CC(=O)c1ccc(-c2ccc3nnn(-c4ccc(OC(C)C)cc4)c3c2)cc1 | false |

Prompt line: Lab log: compare recorded CC50 with 5 µM; is it strictly lower for `CC(C)Oc1ccc(-c2cnc3ccc(-c4ccc(C5(O)COC5)cc4)cn23)cc1` ?
Response line: false
